Reported IC50 values for a set of compounds
- protocol.description: Ability to inhibit expression of Vascular cell adhesion molecule 1
Reply with just the number (in µM).

compound	result.units	IC50
CN(C)S(=O)(=O)c1ccc(Cl)c([N+](=O)[O-])c1	µM	10
N#Cc1ccc(Cl)c([N+](=O)[O-])c1 [4-Chloro-3-nitro-benzonitrile]	µM	11
CCN(C)S(=O)(=O)c1ccc(Cl)c([N+](=O)[O-])c1	µM	10
CN1CCN(S(=O)(=O)c2ccc(Cl)c([N+](=O)[O-])c2)CC1	µM	8
CCCCN(CCCC)S(=O)(=O)c1ccc(Cl)c([N+](=O)[O-])c1	µM	10

Prompt: What does the data say about its IC50? Entry: CN(CCCCCCN(C)S(=O)(=O)c1ccc(Cl)c([N+](=O)[O-])c1)S(=O)(=O)c1ccc(Cl)c([N+](=O)[O-])c1
Completion: 30

Prompt: What does the data say about its IC50? Entry: CN(CCCN(C)S(=O)(=O)c1ccc(Cl)c([N+](=O)[O-])c1)S(=O)(=O)c1ccc(Cl)c([N+](=O)[O-])c1
Completion: 6

###

- protocol.description: Ability to inhibit expression of Vascular cell adhesion molecule 1
Classes by IC50: lo = under 5 µM, med = from 5 µM up to 10 µM, hi = 10 µM and over

Recorded results for 8 molecules are shown here.
molecule	category.label
CCOC(=O)C1CCN(S(=O)(=O)c2ccc(Cl)c([N+](=O)[O-])c2)CC1	med
CCCCCN(CCCCC)S(=O)(=O)c1ccc(Cl)c([N+](=O)[O-])c1	med
CCN(C(C)C)S(=O)(=O)c1ccc(Cl)c([N+](=O)[O-])c1	hi
O=[N+]([O-])c1cc(S(=O)(=O)N2CCCC2)ccc1Cl	lo
O=[N+]([O-])c1cc(S(=O)(=O)c2ccc(F)c([N+](=O)[O-])c2)ccc1F	med
NS(=O)(=O)c1ccc(Cl)c([N+](=O)[O-])c1 [4-Chloro-3-nitro-benzenesulfonamide]	hi
N#Cc1cc([N+](=O)[O-])ccc1Cl	hi
CCN(CC)S(=O)(=O)c1ccc(Cl)c([N+](=O)[O-])c1	lo

Prompt: Given CCCN(CCC)S(=O)(=O)c1ccc(Cl)c([N+](=O)[O-])c1 , name the class its IC50 places it in.
Completion: med

###

Reported IC50 values for a set of molecules
- protocol.description: Ability to inhibit expression of Vascular cell adhesion molecule 1
Reply with just the number (in µM).

Field: example entries. Status: answers known.
molecular.string	meas.value
O=Cc1ccc(Cl)c([N+](=O)[O-])c1	15
CCNS(=O)(=O)c1ccc(Cl)c([N+](=O)[O-])c1	15
N#Cc1cc([N+](=O)[O-])c(Cl)c([N+](=O)[O-])c1	20
CNS(=O)(=O)c1ccc(Cl)c([N+](=O)[O-])c1	11

Now for the molecule whose IC50 we want.
Prompt: What does the data say about its IC50? Entry: N#Cc1ccc(Cl)cc1[N+](=O)[O-]
Completion: 5

###

- protocol.description: Ability to inhibit expression of Vascular cell adhesion molecule 1
metric.name: IC50 (µM)
Reply with just the number (in µM).

Field: example entries. Status: answers known.
molecular.string	IC50 (µM)
O=C(c1ccccc1)c1ccc(Cl)c([N+](=O)[O-])c1	15
O=[N+]([O-])c1cc(S(=O)(=O)NCc2ccccc2)ccc1Cl	18

Now for the compound whose IC50 we want.
Prompt: What does the data say about its IC50? Entry: O=[N+]([O-])c1cc(S(=O)(=O)N(CCO)CCO)ccc1Cl
Completion: 19
